Test system: synthetic oligopeptides
Type: biochemical
Settings: substrate MADY (SEQ ID NO:7), 4 mM oligopeptide, pH 7.5, 37° C.
The following molecules are shown together with reported Specific activity (unit/mg) values.
Give the value in unit/mg but do not write unit/mg after it.

MetAP-*TT (protein) AISIKTPEDIEKMRVAGRLAAEVLEMIEPYVKPGVSTGELDRICNDYIVNEQHAVSACLGYHGYPKSVCISINEVVCHGIPDDAKLLKDGDIVNIDVTVIKDGFHGDTSKMFIVGKPTIMGERLCRITQESLYLALRMVKPGINLREIGAAIQKFVEAEGFSVVREYCGHGIGRGFHEEPQVLHYDSRETNVVLKPGMTFTIEPTVNAGKKEIRTMKDGWTVKTKDRSLSATYEHTIVVTDNGCEILTLRKDDTIPAIISHDE :: 0.38
MetAP-GTG (protein) AISIKTPEDIEKMRVAGRLAAEVLEMIEPYVKPGVSTGELDRICNDYIVNEQHAVSACLGYHGYPKSVCISINEVVCHGIPDDAKLLKDGDIVNIDVTVIKDGFHGDTSKMFIVGKPTIMGERLCRITQESLYLALRMVKPGINLREIGAAIQKFVEAEGFSVVREGCGHGIGRGFHEEPQVLHYDSRETNVVLKPGMTFTIEPTVNAGKKEIRTMKDGWTVKTKDRSLSAGYEHTIVVTDNGCEILTLRKDDTIPAIISHDE :: 1.68

Lab note: next molecule to report on.
Request: Give the value of Specific activity (unit/mg) reported for the following: MetAP-*GG (protein) AISIKTPEDIEKMRVAGRLAAEVLEMIEPYVKPGVSTGELDRICNDYIVNEQHAVSACLGYHGYPKSVCISINEVVCHGIPDDAKLLKDGDIVNIDVTVIKDGFHGDTSKMFIVGKPTIMGERLCRITQESLYLALRMVKPGINLREIGAAIQKFVEAEGFSVVREYCGHGIGRGFHEEPQVLHYDSRETNVVLKPGMTFTIEPGVNAGKKEIRTMKDGWTVKTKDRSLSAGYEHTIVVTDNGCEILTLRKDDTIPAIISHDE
Response: 0.51
